- Test target: NADPH--cytochrome P450 reductase (Homo sapiens, UniProt P16435)
- Sequence (P16435 whole entry): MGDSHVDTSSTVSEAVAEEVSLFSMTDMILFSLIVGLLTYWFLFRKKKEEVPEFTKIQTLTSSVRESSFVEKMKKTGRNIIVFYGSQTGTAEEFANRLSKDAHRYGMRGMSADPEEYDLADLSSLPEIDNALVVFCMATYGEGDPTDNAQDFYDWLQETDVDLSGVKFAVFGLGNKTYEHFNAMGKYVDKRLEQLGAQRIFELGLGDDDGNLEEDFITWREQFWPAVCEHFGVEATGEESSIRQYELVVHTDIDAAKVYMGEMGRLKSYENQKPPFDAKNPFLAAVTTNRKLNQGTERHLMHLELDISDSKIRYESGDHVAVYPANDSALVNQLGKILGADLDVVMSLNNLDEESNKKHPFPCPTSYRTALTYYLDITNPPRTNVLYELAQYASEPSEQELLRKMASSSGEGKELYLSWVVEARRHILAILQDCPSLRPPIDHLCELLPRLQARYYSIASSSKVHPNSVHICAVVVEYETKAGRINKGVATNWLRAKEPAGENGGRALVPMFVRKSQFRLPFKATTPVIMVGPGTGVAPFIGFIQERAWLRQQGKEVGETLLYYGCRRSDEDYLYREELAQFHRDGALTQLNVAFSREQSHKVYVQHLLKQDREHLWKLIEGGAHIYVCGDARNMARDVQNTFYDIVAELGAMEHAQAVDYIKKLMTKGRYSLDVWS
- Method notes: Induction of recombinant human CPR-mediated superoxide generation assessed as one-electron reduction of compound by measuring SOD-inhibitable reduction of succinoylated cytochrome c per 2 mU enzyme at […] by spectrophotometric analysis (reference value: 0.2 +/- 0.1 micromol/L/min)

Compound	Units of measure	Activity
CC(=O)c1cc2c(s1)C(=O)c1ccccc1C2=O	µmol/L/min	1.2
O=C1c2ccccc2C(=O)c2sc([N+](=O)[O-])cc21	µmol/L/min	2
CC1=CC(=O)c2ccccc2C1=O [MENADIONE]	µmol/L/min	2.1
Cc1cc2c(s1)C(=O)c1ccccc1C2=O	µmol/L/min	1.1
CCc1noc(-c2cc3c(s2)C(=O)c2ccccc2C3=O)n1	µmol/L/min	0.9
O=C1c2ccccc2C(=O)c2sccc21 [THIOPHENONAPHTHOQUINONE]	µmol/L/min	1.2
Nc1cc2c(s1)C(=O)c1ccccc1C2=O	µmol/L/min	1.1

----------
- Tested on: HaCaT
- Method notes: Induction of superoxide generation in human HaCaT cells assessed as 2-OH-E+ oxidized product formation by measuring mean fluorescence intensity at 50 umol/L after 30 mins by flow cytometry (reference value: 7.1 +/- 5.2)
- Format: functional
Param threshold (30) applies to Flu intensity; output true when value >= threshold, false when value < threshold.

Compound	Label
O=C1c2ccccc2C(=O)c2sc([N+](=O)[O-])cc21	true
Nc1cc2c(s1)C(=O)c1ccccc1C2=O	true
CCc1noc(-c2cc3c(s2)C(=O)c2ccccc2C3=O)n1	false
CC(=O)c1cc2c(s1)C(=O)c1ccccc1C2=O	false
CC1=CC(=O)c2ccccc2C1=O [MENADIONE]	true
Cc1cc2c(s1)C(=O)c1ccccc1C2=O	false
O=C1c2ccccc2C(=O)c2sccc21 [THIOPHENONAPHTHOQUINONE]	false

----------
- Test target: NAD(P)H dehydrogenase [quinone] 1 (Homo sapiens)
- Method notes: Induction of recombinant human NQO-1-mediated superoxide generation assessed as two-electron reduction of compound by measuring SOD-inhibitable reduction of cytochrome c per unit enzyme at […] by spectrophotometric analysis (reference value: 0.2 +/- 0.1 micromol/L/min)
# log10 of Activity listing for each entry below
Readout: log10 of Activity (log10 of the value in µmol/L/min)

Entry smiles	log10 of Activity
Nc1cc2c(s1)C(=O)c1ccccc1C2=O	-0.10
CCc1noc(-c2cc3c(s2)C(=O)c2ccccc2C3=O)n1	-0.30
O=C1c2ccccc2C(=O)c2sc([N+](=O)[O-])cc21	0.66
O=C1c2ccccc2C(=O)c2sccc21	0.08
CC1=CC(=O)c2ccccc2C1=O	0.00
CC(=O)c1cc2c(s1)C(=O)c1ccccc1C2=O	-0.10
Cc1cc2c(s1)C(=O)c1ccccc1C2=O	-0.52
